B1: TPR 5TU (parent)
chain: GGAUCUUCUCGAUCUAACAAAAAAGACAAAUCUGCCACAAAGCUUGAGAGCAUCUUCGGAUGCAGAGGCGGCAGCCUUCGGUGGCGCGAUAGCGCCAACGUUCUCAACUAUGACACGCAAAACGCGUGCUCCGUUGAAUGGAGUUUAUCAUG

Variants of: B1
test details: polymerase ribozyme fitness, log enrichment relative to wild type (log ratio); higher = more active; in vitro selection for triplet polymerase activity
Fewer inactive variants are shown than the library holds.
Recorded polymerase ribozyme fitness (log ratio) by entry
parameter: polymerase ribozyme fitness (log ratio)

variant_code="C85U C96A C116G" parameter="polymerase ribozyme fitness (log ratio)" readout_qualifier== endpoint_value=-0.604
variant_code="C57G C87A U144C" parameter="polymerase ribozyme fitness (log ratio)" readout_qualifier== endpoint_value=-3.75
variant_code="C57A G83C C87U U134G U139A U144G" parameter="polymerase ribozyme fitness (log ratio)" readout_qualifier=≤ endpoint_value=-4.2
variant_code="C32G C57U G80C G86C G152U" parameter="polymerase ribozyme fitness (log ratio)" readout_qualifier=≤ endpoint_value=-4.2
variant_code="C35U C95A" parameter="polymerase ribozyme fitness (log ratio)" readout_qualifier== endpoint_value=-0.608
variant_code="U9A A16U U56A G84A C131U" parameter="polymerase ribozyme fitness (log ratio)" readout_qualifier=≤ endpoint_value=-4.2
variant_code="A60G C69A A91U A97U U134C" parameter="polymerase ribozyme fitness (log ratio)" readout_qualifier=≤ endpoint_value=-4.2
variant_code="A22C G42U A73U G81C A91U C96U A107G G143C" parameter="polymerase ribozyme fitness (log ratio)" readout_qualifier=≤ endpoint_value=-4.2
variant_code="C18G G50A C96G A121C" parameter="polymerase ribozyme fitness (log ratio)" readout_qualifier== endpoint_value=-2.18
variant_code="A28C U134A" parameter="polymerase ribozyme fitness (log ratio)" readout_qualifier=≤ endpoint_value=-4.2
variant_code="C27U U44A G46A C54A C116G A147U" parameter="polymerase ribozyme fitness (log ratio)" readout_qualifier=≤ endpoint_value=-4.2
variant_code="A66G C85U G86U" parameter="polymerase ribozyme fitness (log ratio)" readout_qualifier=≤ endpoint_value=-4.2
variant_code="U61C C87A" parameter="polymerase ribozyme fitness (log ratio)" readout_qualifier=≤ endpoint_value=-4.2
variant_code="U13G A22G A24U A28G C76U U78A C79G G81A U102G C114A" parameter="polymerase ribozyme fitness (log ratio)" readout_qualifier=≤ endpoint_value=-4.2
variant_code="A24G U44A A49C U82G A122U G140C C149U" parameter="polymerase ribozyme fitness (log ratio)" readout_qualifier== endpoint_value=-4.02
variant_code="G58C C85U G117U" parameter="polymerase ribozyme fitness (log ratio)" readout_qualifier== endpoint_value=-0.00983
variant_code="A30C A41C C43U U53A C93U C125U A137G" parameter="polymerase ribozyme fitness (log ratio)" readout_qualifier=≤ endpoint_value=-4.2
variant_code="A52G A106G G143A" parameter="polymerase ribozyme fitness (log ratio)" readout_qualifier== endpoint_value=-0.542
variant_code="G42C U53A G83C G126U" parameter="polymerase ribozyme fitness (log ratio)" readout_qualifier=≤ endpoint_value=-4.2
variant_code="C32G G50A U61A G62C G71A A91U G94C A138C" parameter="polymerase ribozyme fitness (log ratio)" readout_qualifier=≤ endpoint_value=-4.2
variant_code="U44A G48C G59A U82C C116G C123U U134C" parameter="polymerase ribozyme fitness (log ratio)" readout_qualifier=≤ endpoint_value=-4.2
variant_code="C10G U146G" parameter="polymerase ribozyme fitness (log ratio)" readout_qualifier== endpoint_value=-4.19
variant_code="G59U C95U" parameter="polymerase ribozyme fitness (log ratio)" readout_qualifier== endpoint_value=-2.6
variant_code="A40C U77C C116A C125U" parameter="polymerase ribozyme fitness (log ratio)" readout_qualifier=≤ endpoint_value=-4.2
variant_code="G46C U61A C63U U82A A122G" parameter="polymerase ribozyme fitness (log ratio)" readout_qualifier=≤ endpoint_value=-4.2
variant_code="A39U G83C" parameter="polymerase ribozyme fitness (log ratio)" readout_qualifier== endpoint_value=-2.01
variant_code="C8G A20C" parameter="polymerase ribozyme fitness (log ratio)" readout_qualifier== endpoint_value=-3.59
variant_code="C96A A115U" parameter="polymerase ribozyme fitness (log ratio)" readout_qualifier== endpoint_value=-2.29
variant_code="C51U G124A G133C G140A A150G" parameter="polymerase ribozyme fitness (log ratio)" readout_qualifier=≤ endpoint_value=-4.2
variant_code="A19U A21U C72G A89C C96G G143A" parameter="polymerase ribozyme fitness (log ratio)" readout_qualifier=≤ endpoint_value=-4.2
variant_code="U4G A41U G50C C85G" parameter="polymerase ribozyme fitness (log ratio)" readout_qualifier=≤ endpoint_value=-4.2
variant_code="C10G A20G G50U G59C C87U" parameter="polymerase ribozyme fitness (log ratio)" readout_qualifier=≤ endpoint_value=-4.2
variant_code="A23U G42C G83A" parameter="polymerase ribozyme fitness (log ratio)" readout_qualifier=≤ endpoint_value=-4.2
variant_code="U44A C131G" parameter="polymerase ribozyme fitness (log ratio)" readout_qualifier=≤ endpoint_value=-4.2
variant_code="A20U G48C C57G G128A" parameter="polymerase ribozyme fitness (log ratio)" readout_qualifier=≤ endpoint_value=-4.2
variant_code="A12U A39U U53G G126U" parameter="polymerase ribozyme fitness (log ratio)" readout_qualifier== endpoint_value=-4.09
variant_code="A47C A89U A150G" parameter="polymerase ribozyme fitness (log ratio)" readout_qualifier== endpoint_value=-1.84
variant_code="G62U U145G" parameter="polymerase ribozyme fitness (log ratio)" readout_qualifier== endpoint_value=-0.51
variant_code="G84A A97U U146C" parameter="polymerase ribozyme fitness (log ratio)" readout_qualifier== endpoint_value=-0.418
variant_code="A12U A23U A40U C87A G88C G117U" parameter="polymerase ribozyme fitness (log ratio)" readout_qualifier=≤ endpoint_value=-4.2
variant_code="A52C U56C C103G G143C" parameter="polymerase ribozyme fitness (log ratio)" readout_qualifier== endpoint_value=-4.12
variant_code="C10A C54G A73U A120U" parameter="polymerase ribozyme fitness (log ratio)" readout_qualifier=≤ endpoint_value=-4.2
variant_code="G46A C54A G94C G117A A122U G124A" parameter="polymerase ribozyme fitness (log ratio)" readout_qualifier== endpoint_value=-3.11
variant_code="C114U A137C" parameter="polymerase ribozyme fitness (log ratio)" readout_qualifier== endpoint_value=-3.52
variant_code="A41U C51A G86C G88C" parameter="polymerase ribozyme fitness (log ratio)" readout_qualifier=≤ endpoint_value=-4.2
variant_code="A3C A22U A37G C54G C57U C85U G88C G117C C129U" parameter="polymerase ribozyme fitness (log ratio)" readout_qualifier=≤ endpoint_value=-4.2
variant_code="C14G G94A" parameter="polymerase ribozyme fitness (log ratio)" readout_qualifier== endpoint_value=-2.61
variant_code="U6A C18U A20C A22C U44C U55A C87A" parameter="polymerase ribozyme fitness (log ratio)" readout_qualifier=≤ endpoint_value=-4.2
variant_code="C18G C51U C87G C99A U101C C118U G136A" parameter="polymerase ribozyme fitness (log ratio)" readout_qualifier=≤ endpoint_value=-4.2
variant_code="C27G C54A" parameter="polymerase ribozyme fitness (log ratio)" readout_qualifier== endpoint_value=-3.98
variant_code="C38U G42A C75G A91G C95U C105U A113U C118G" parameter="polymerase ribozyme fitness (log ratio)" readout_qualifier=≤ endpoint_value=-4.2
variant_code="C76A A89U G141U" parameter="polymerase ribozyme fitness (log ratio)" readout_qualifier== endpoint_value=-2.94
variant_code="G80A G92C" parameter="polymerase ribozyme fitness (log ratio)" readout_qualifier== endpoint_value=-0.857
variant_code="C54A A91G A120G" parameter="polymerase ribozyme fitness (log ratio)" readout_qualifier== endpoint_value=-3.57
variant_code="A3G U6A U31G G88U" parameter="polymerase ribozyme fitness (log ratio)" readout_qualifier=≤ endpoint_value=-4.2
variant_code="A52C A66G C72A A97U C99A" parameter="polymerase ribozyme fitness (log ratio)" readout_qualifier=≤ endpoint_value=-4.2
variant_code="C14U A21G C38G C57A C79U A138C U148C" parameter="polymerase ribozyme fitness (log ratio)" readout_qualifier=≤ endpoint_value=-4.2
variant_code="C36A C87U" parameter="polymerase ribozyme fitness (log ratio)" readout_qualifier== endpoint_value=-3.89
variant_code="A40U G59C C132U U145G" parameter="polymerase ribozyme fitness (log ratio)" readout_qualifier== endpoint_value=-1.94
variant_code="G11A A91G C114U U144C" parameter="polymerase ribozyme fitness (log ratio)" readout_qualifier== endpoint_value=-4.14
variant_code="G65A C85U A137U U139A G140A G152A" parameter="polymerase ribozyme fitness (log ratio)" readout_qualifier== endpoint_value=-3.3
variant_code="C14G C38A A52C C57A G62A G83A A89C C96G A110C" parameter="polymerase ribozyme fitness (log ratio)" readout_qualifier== endpoint_value=-3.85
variant_code="C85U C93U C131A" parameter="polymerase ribozyme fitness (log ratio)" readout_qualifier== endpoint_value=-2.94
variant_code="G42C C116G A120U A138G G141U G143A" parameter="polymerase ribozyme fitness (log ratio)" readout_qualifier=≤ endpoint_value=-4.2
variant_code=G80A parameter="polymerase ribozyme fitness (log ratio)" readout_qualifier== endpoint_value=-0.0737
variant_code="U55A C105G" parameter="polymerase ribozyme fitness (log ratio)" readout_qualifier== endpoint_value=-1.73
variant_code="A29C U45A C95G" parameter="polymerase ribozyme fitness (log ratio)" readout_qualifier=≤ endpoint_value=-4.2
variant_code="G92C C99A A138C" parameter="polymerase ribozyme fitness (log ratio)" readout_qualifier=≤ endpoint_value=-4.2
variant_code="C27G G62A A64G A73C G88U C99U A107U G124A U130C U148A" parameter="polymerase ribozyme fitness (log ratio)" readout_qualifier=≤ endpoint_value=-4.2
variant_code="A24G C57A G59U C75A U90G C103G C108U A110C G133U G141C" parameter="polymerase ribozyme fitness (log ratio)" readout_qualifier=≤ endpoint_value=-4.2
variant_code="A29G C43A G48C C93G G126C" parameter="polymerase ribozyme fitness (log ratio)" readout_qualifier=≤ endpoint_value=-4.2
variant_code="A19G A91C C116A G141A U145G" parameter="polymerase ribozyme fitness (log ratio)" readout_qualifier=≤ endpoint_value=-4.2
variant_code="C75A U144G" parameter="polymerase ribozyme fitness (log ratio)" readout_qualifier=≤ endpoint_value=-4.2
variant_code="U44A A49U C72G C79G G92U A150G" parameter="polymerase ribozyme fitness (log ratio)" readout_qualifier=≤ endpoint_value=-4.2
variant_code="A24C C75A A106U C132G U139C A142U" parameter="polymerase ribozyme fitness (log ratio)" readout_qualifier=≤ endpoint_value=-4.2
variant_code="G68C G136U A142G" parameter="polymerase ribozyme fitness (log ratio)" readout_qualifier=≤ endpoint_value=-4.2
variant_code="G126A A142C" parameter="polymerase ribozyme fitness (log ratio)" readout_qualifier== endpoint_value=-3.28
variant_code="U9A A22U A39G C96G U109G" parameter="polymerase ribozyme fitness (log ratio)" readout_qualifier=≤ endpoint_value=-4.2
variant_code="A47U C85A" parameter="polymerase ribozyme fitness (log ratio)" readout_qualifier== endpoint_value=-2.21
variant_code="U56G C72U" parameter="polymerase ribozyme fitness (log ratio)" readout_qualifier== endpoint_value=-0.106
variant_code="A24U A113C" parameter="polymerase ribozyme fitness (log ratio)" readout_qualifier== endpoint_value=-3.05
variant_code="C54G G94A" parameter="polymerase ribozyme fitness (log ratio)" readout_qualifier== endpoint_value=-1.68
variant_code="U53A C57G G74C C87A C93A C149A" parameter="polymerase ribozyme fitness (log ratio)" readout_qualifier=≤ endpoint_value=-4.2
variant_code="G59A G133U G136C U148C" parameter="polymerase ribozyme fitness (log ratio)" readout_qualifier=≤ endpoint_value=-4.2
variant_code="C14U A60U C96G" parameter="polymerase ribozyme fitness (log ratio)" readout_qualifier=≤ endpoint_value=-4.2
variant_code="A52C C54U" parameter="polymerase ribozyme fitness (log ratio)" readout_qualifier== endpoint_value=-1.87
variant_code="A52C A60C" parameter="polymerase ribozyme fitness (log ratio)" readout_qualifier== endpoint_value=-2.71
variant_code="A17U C51A G94U A138G A150U" parameter="polymerase ribozyme fitness (log ratio)" readout_qualifier=≤ endpoint_value=-4.2
variant_code="A19U A21U G46C C96A U134A" parameter="polymerase ribozyme fitness (log ratio)" readout_qualifier=≤ endpoint_value=-4.2
variant_code="G59U C93A" parameter="polymerase ribozyme fitness (log ratio)" readout_qualifier== endpoint_value=-3.58
variant_code="U78A C79U U82A G94U C96G G126A G141U" parameter="polymerase ribozyme fitness (log ratio)" readout_qualifier=≤ endpoint_value=-4.2
